Some compounds, each annotated with its measured pIC50.
testedTarget: NDM-1 (Klebsiella pneumoniae, UniProt C7C422)
Sequence (C7C422 29-270, looked up, species assumed): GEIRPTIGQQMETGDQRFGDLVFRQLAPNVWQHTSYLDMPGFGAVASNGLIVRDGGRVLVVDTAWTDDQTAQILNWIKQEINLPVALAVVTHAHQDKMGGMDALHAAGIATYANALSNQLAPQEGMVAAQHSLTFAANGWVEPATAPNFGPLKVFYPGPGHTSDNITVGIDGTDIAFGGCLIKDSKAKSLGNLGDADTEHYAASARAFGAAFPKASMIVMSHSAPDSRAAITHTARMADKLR
pIC50: −log10 of the molar value.

compound: NS(=O)(=O)c1c(S(=O)(=O)N[C@@H]2CCNC2)ccc(N2CCn3nc(C(F)(F)F)nc3C2)c1-c1nn[nH]n1 [Example 4]
pIC50: 8.65
//
compound: C[C@H](N)CNS(=O)(=O)c1ccc(N2CCCn3ccnc32)c(-c2nn[nH]n2)c1S(N)(=O)=O [Example 14]
pIC50: 8.79
//
compound: NS(=O)(=O)c1c(S(=O)(=O)N[C@@H]2CCNC2)ccc(N2CCCc3ccc(CCO)nc32)c1-c1nnn[nH]1 [Example 35]
pIC50: 8.36
//
compound: NS(=O)(=O)c1c(S(=O)(=O)N[C@@H]2CCNC2)ccc(N2CCc3[nH]nnc3C2)c1-c1nnn[nH]1 [Example 26]
pIC50: 8.67
//
compound: NS(=O)(=O)c1c(S(=O)(=O)N[C@@H]2CCNC2)ccc(N2CCc3[nH]ncc3C2)c1-c1nnn[nH]1 [Example 30]
pIC50: 9.72
//
compound: NS(=O)(=O)c1c(S(=O)(=O)N[C@@H]2CCNC2)ccc(N2Cc3cccnc3C2)c1-c1nnn[nH]1 [Example 22]
pIC50: 9.21
//
compound: NC[C@@H](O)CNS(=O)(=O)c1ccc(-n2ccnc2)c(-c2nn[nH]n2)c1S(N)(=O)=O [Example 41]
pIC50: 9.18
//
compound: NS(=O)(=O)c1c(S(=O)(=O)N[C@@H]2CCNC2)ccc(N2CCCn3ncnc32)c1-c1nnn[nH]1 [Example 8]
pIC50: 9.33
//
compound: NC[C@@H](O)CNS(=O)(=O)c1ccc(N2CCc3cccnc32)c(-c2nn[nH]n2)c1S(N)(=O)=O [Example 36]
pIC50: 9.44
//
compound: NS(=O)(=O)c1c(S(=O)(=O)N[C@@H]2CCNC2)ccc(N2CCCn3nccc32)c1-c1nn[nH]n1 [Example 7]
pIC50: 9.85
//
compound: NCCNS(=O)(=O)c1ccc(N2CCCn3ccnc32)c(-c2nn[nH]n2)c1S(N)(=O)=O [Example 12]
pIC50: 8.80
//
compound: NS(=O)(=O)c1c(S(=O)(=O)N[C@@H]2CCNC2)ccc(N2CCc3ncccc32)c1-c1nnn[nH]1 [Example 34]
pIC50: 9.54
//
compound: NC[C@@H](O)CS(=O)(=O)c1ccc(N2CCCn3ccnc32)c(-c2nn[nH]n2)c1S(N)(=O)=O [Example 37]
pIC50: 8.37
//
compound: NC[C@@H](O)CNS(=O)(=O)c1ccc(N2CCC(CO)n3ccnc32)c(-c2nn[nH]n2)c1S(N)(=O)=O (stereo partly drawn) [Example 38]
pIC50: 9.19
//
compound: NS(=O)(=O)c1c(S(=O)(=O)N[C@@H]2CCNC2)ccc(N2CCc3cccnc32)c1-c1nnn[nH]1 [Example 32]
pIC50: 9.68

###

testedTarget: UniProtKB P52699
Sequence (P52699 19-246, looked up, species assumed): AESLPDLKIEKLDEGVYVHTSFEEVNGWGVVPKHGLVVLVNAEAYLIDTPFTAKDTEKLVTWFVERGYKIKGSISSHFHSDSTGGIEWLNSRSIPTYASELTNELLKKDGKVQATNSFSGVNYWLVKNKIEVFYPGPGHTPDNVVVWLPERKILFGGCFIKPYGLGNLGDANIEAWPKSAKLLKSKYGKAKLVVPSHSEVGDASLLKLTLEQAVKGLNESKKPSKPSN
pIC50: −log10 of the molar value.
Grouping key: pIC50. Bins: low bin = under 8, mid bin = from 8 up to 9, high bin = 9 and over

smilesData: C[C@H](CN)NS(=O)(=O)c1ccc(N2CCCn3ccnc32)c(-c2nnn[nH]2)c1S(N)(=O)=O
classLabel: mid bin
--
smilesData: NS(=O)(=O)c1c(S(=O)(=O)N[C@@H]2CCNC2)ccc(N2CCCc3ccncc32)c1-c1nnn[nH]1
classLabel: mid bin
--
smilesData: NS(=O)(=O)c1c(S(=O)(=O)N[C@@H]2CCNC2)ccc(N2CCCn3nccc32)c1-c1nn[nH]n1
classLabel: mid bin
--
smilesData: NS(=O)(=O)c1c(S(=O)(=O)N[C@@H]2CCNC2)ccc(N2CCCc3ccc(CCO)nc32)c1-c1nnn[nH]1
classLabel: mid bin
--
smilesData: CNC(=O)c1nsc2c1CCN(c1ccc(S(=O)(=O)N[C@@H]3CCNC3)c(S(N)(=O)=O)c1-c1nnn[nH]1)C2
classLabel: high bin
--
smilesData: Cc1cc2c(c(C)n1)CCN2c1ccc(S(=O)(=O)N[C@@H]2CCNC2)c(S(N)(=O)=O)c1-c1nnn[nH]1
classLabel: low bin

###

Tested on: Pseudomonas aeruginosa PAO1 MB5919 (oprD+, efflux+)
Type: cell-based
Some compounds, each annotated with its measured MIC.

smilesData: C[C@@H](O)[C@H]1C(=O)N2C(C(=O)O)=C(S[C@@H]3CN[C@H](C(=O)N(C)C)C3)[C@H](C)[C@H]12
testedTarget: Pseudomonas aeruginosa PAO1 MB5919 (oprD+, efflux+)
valueUnit: µg/mL
relationOperator: =
MIC: 2
//
smilesData: CCN1CCN(C(=O)N[C@@H](C(=O)N[C@@H]2C(=O)N3[C@@H]2SC(C)(C)[C@@H]3C(=O)O)c2ccccc2)C(=O)C1=O
testedTarget: Pseudomonas aeruginosa PAO1 MB5919 (oprD+, efflux+)
valueUnit: µg/mL
relationOperator: =
MIC: 2
//
smilesData: O=C(N[C@H](CO)[C@H](O)c1ccc([N+](=O)[O-])cc1)C(Cl)Cl
testedTarget: Pseudomonas aeruginosa PAO1 MB5919 (oprD+, efflux+)
valueUnit: µg/mL
relationOperator: >
MIC: 64
//
smilesData: CC[C@H]1OC(=O)[C@H](C)[C@@H](O[C@H]2C[C@@](C)(OC)[C@@H](O)[C@H](C)O2)[C@H](C)[C@@H](O[C@@H]2O[C@H](C)C[C@H](N(C)C)[C@H]2O)[C@](C)(O)C[C@@H](C)CN(C)[C@H](C)[C@@H](O)[C@]1(C)O
testedTarget: Pseudomonas aeruginosa PAO1 MB5919 (oprD+, efflux+)
valueUnit: µg/mL
relationOperator: =
MIC: 16
//
smilesData: C[C@@H](O)[C@H]1C(=O)N2C(C(=O)O)=C(SCCN=CN)C[C@H]12
testedTarget: Pseudomonas aeruginosa PAO1 MB5919 (oprD+, efflux+)
valueUnit: µg/mL
relationOperator: =
MIC: 4
//
smilesData: CC(C)(O/N=C(\C(=O)N[C@@H]1C(=O)N2C(C(=O)[O-])=C(C[n+]3ccccc3)CS[C@H]12)c1csc(N)n1)C(=O)O
testedTarget: Pseudomonas aeruginosa PAO1 MB5919 (oprD+, efflux+)
valueUnit: µg/mL
relationOperator: =
MIC: 1

###

System: Pseudomonas aeruginosa MB9861 (MB5919 Trans pFlp-Vim1 plasmid, efflux+)
Type: cell-based
settings: MB5919 Trans pFlp-Vim1 plasmid (MB 9861), OprD+
Some compounds, each annotated with its measured MIC.

smilesData: O=C(N[C@H](CO)[C@H](O)c1ccc([N+](=O)[O-])cc1)C(Cl)Cl
testedTarget: Pseudomonas aeruginosa MB9861 (MB5919 Trans pFlp-Vim1 plasmid, efflux+)
MIC: > 64 µg/mL
//
smilesData: CCN1CCN(C(=O)N[C@@H](C(=O)N[C@@H]2C(=O)N3[C@@H]2SC(C)(C)[C@@H]3C(=O)O)c2ccccc2)C(=O)C1=O
testedTarget: Pseudomonas aeruginosa MB9861 (MB5919 Trans pFlp-Vim1 plasmid, efflux+)
MIC: > 256 µg/mL
//
smilesData: C[C@@H](O)[C@H]1C(=O)N2C(C(=O)O)=C(SCCN=CN)C[C@H]12
testedTarget: Pseudomonas aeruginosa MB9861 (MB5919 Trans pFlp-Vim1 plasmid, efflux+)
MIC: > 64 µg/mL
//
smilesData: CC[C@H]1OC(=O)[C@H](C)[C@@H](O[C@H]2C[C@@](C)(OC)[C@@H](O)[C@H](C)O2)[C@H](C)[C@@H](O[C@@H]2O[C@H](C)C[C@H](N(C)C)[C@H]2O)[C@](C)(O)C[C@@H](C)CN(C)[C@H](C)[C@@H](O)[C@]1(C)O
testedTarget: Pseudomonas aeruginosa MB9861 (MB5919 Trans pFlp-Vim1 plasmid, efflux+)
MIC: 32 µg/mL
//
smilesData: C[C@@H](O)[C@H]1C(=O)N2C(C(=O)O)=C(S[C@@H]3CN[C@H](C(=O)N(C)C)C3)[C@H](C)[C@H]12
testedTarget: Pseudomonas aeruginosa MB9861 (MB5919 Trans pFlp-Vim1 plasmid, efflux+)
MIC: > 64 µg/mL
//
smilesData: CC(C)(O/N=C(\C(=O)N[C@@H]1C(=O)N2C(C(=O)[O-])=C(C[n+]3ccccc3)CS[C@H]12)c1csc(N)n1)C(=O)O
testedTarget: Pseudomonas aeruginosa MB9861 (MB5919 Trans pFlp-Vim1 plasmid, efflux+)
MIC: > 256 µg/mL

###

testedTarget: NDM-1 (Klebsiella pneumoniae, UniProt C7C422)
Response field label: string, one of Condition met (IC50 strictly below 2 nM) or Condition not met.

smilesData: NC[C@@H](O)CNS(=O)(=O)c1ccc(N2CC[C@@H](CO)n3ccnc32)c(-c2nn[nH]n2)c1S(N)(=O)=O
classLabel: Condition met

smilesData: NS(=O)(=O)c1c(S(=O)(=O)N[C@@H]2CCNC2)ccc(N2CCc3cccnc3C2)c1-c1nnn[nH]1
classLabel: Condition not met

smilesData: NS(=O)(=O)c1c(S(=O)(=O)N[C@@H]2CCNC2)ccc(N2CCn3cncc3C2)c1-c1nn[nH]n1
classLabel: Condition met

smilesData: Nc1nc2c(s1)CN(c1ccc(S(=O)(=O)N[C@@H]3CCNC3)c(S(N)(=O)=O)c1-c1nnn[nH]1)CC2
classLabel: Condition not met

smilesData: Cc1cc2c(c(C)n1)CCN2c1ccc(S(=O)(=O)N[C@@H]2CCNC2)c(S(N)(=O)=O)c1-c1nnn[nH]1
classLabel: Condition not met

smilesData: CNC(=O)c1nsc2c1CCN(c1ccc(S(=O)(=O)N[C@@H]3CCNC3)c(S(N)(=O)=O)c1-c1nnn[nH]1)C2
classLabel: Condition met

smilesData: NC[C@H](CO)NS(=O)(=O)c1ccc(N2CCCn3ccnc32)c(-c2nnn[nH]2)c1S(N)(=O)=O
classLabel: Condition not met

smilesData: NS(=O)(=O)c1c(S(=O)(=O)N[C@@H]2CCNC2)ccc(N2CCn3ccnc3C2)c1-c1nnn[nH]1
classLabel: Condition met

smilesData: NC[C@@H](O)CNS(=O)(=O)c1ccc(N2CCCn3ccnc32)c(-c2nnn[nH]2)c1S(N)(=O)=O
classLabel: Condition met

smilesData: NCCNS(=O)(=O)c1ccc(N2CCn3ccnc32)c(-c2nnn[nH]2)c1S(N)(=O)=O
classLabel: Condition met

smilesData: NS(=O)(=O)c1c(S(=O)(=O)N[C@@H]2CCNC2)ccc(N2CCCc3ccncc32)c1-c1nnn[nH]1
classLabel: Condition met

smilesData: NCC(CN)NS(=O)(=O)c1ccc(N2CCn3ccnc3C2)c(-c2nn[nH]n2)c1S(N)(=O)=O
classLabel: Condition met

smilesData: NS(=O)(=O)c1c(S(=O)(=O)N[C@@H]2CCNC2)ccc(N2CCc3[nH]cnc3C2)c1-c1nnn[nH]1
classLabel: Condition met

smilesData: NC[C@@H](O)CNS(=O)(=O)c1ccc(N2CCc3nc(N)[nH]c3C2)c(-c2nn[nH]n2)c1S(N)(=O)=O
classLabel: Condition not met

Values were extracted from patent US20200375987A1.
